Entry source: patent US10087188B2

test system: HeLa cells; assay: [3H] Adenosine uptake assay; format: cell-based; conditions: accumulation of tritiated adenosine into HeLa cells; compound concentration range 10 μM to 0.032 nM; read-out: ADU inhibition IC50 (adenosine uptake inhibition potency)
Item-by-item account of pIC50
Quick note: pIC50 means taking -log10 of the concentration in moles per liter.

COMPOUND: C[C@]1(C(=O)O)CC[C@H](N2CCO[C@@H](c3nc(-c4ccc(C(=O)Nc5cc(C(F)F)ccn5)cc4)c4c(N)ncc(Cl)n34)C2)CC1 (stereo in doubt)
RECORDED_NUMBER: 5.35

COMPOUND: C[C@@]1(C(=O)O)CCC[C@@](C)(c2nc(-c3ccc(C(=O)Nc4cc(C(F)(F)F)ccn4)cc3)c3c(N)nccn23)C1
RECORDED_NUMBER: 5.22

COMPOUND: CCOc1cc(C(=O)Nc2cc(C(F)(F)F)ccn2)ccc1-c1nc([C@@H]2CC[C@@H](C(=O)O)O2)n2ccnc(N)c12 [Example 117]
RECORDED_NUMBER: 5.52

COMPOUND: CC(C)C1(C(=O)O)CCC(C)(c2nc(-c3ccc(C(=O)Nc4cc(C(F)(F)F)ccn4)cc3)c3c(N)nccn23)C1 (stereo not drawn) [Example 146]
RECORDED_NUMBER: 5.00

COMPOUND: CC(C)(C(=O)O)C1CCC(c2nc(-c3ccc(C(=O)Nc4cc(C(F)(F)F)ccn4)cc3)c3c(N)nccn23)C1 (stereo not drawn) [Example 96]
RECORDED_NUMBER: 5.00

Below: the item to evaluate.
stdin: Suppose we examine the compound CCOc1cc(C(=O)Nc2cc(C(F)(F)F)ccn2)ccc1-c1nc([C@@H]2CC[C@@H](C(=O)O)O2)n2ccnc(N)c12 [Example 116] ; what pIC50 value has been reported?
stdout: 5.94

---

Catalogue of compounds with associated IC50
biological target: BTK enzyme (recombinant full-length BTK, hBTK) (Homo sapiens (Human)); assay: Btk enzyme activity assay, LANCE TR-FRET; assay type: biochemical; settings: 50 pM hBTK, 2 μM biotin-A5-peptide, 25 μM ATP; 60 minute compound & enzyme incubation; read-out: BTK binding IC50
Sequence (Q06187 whole entry): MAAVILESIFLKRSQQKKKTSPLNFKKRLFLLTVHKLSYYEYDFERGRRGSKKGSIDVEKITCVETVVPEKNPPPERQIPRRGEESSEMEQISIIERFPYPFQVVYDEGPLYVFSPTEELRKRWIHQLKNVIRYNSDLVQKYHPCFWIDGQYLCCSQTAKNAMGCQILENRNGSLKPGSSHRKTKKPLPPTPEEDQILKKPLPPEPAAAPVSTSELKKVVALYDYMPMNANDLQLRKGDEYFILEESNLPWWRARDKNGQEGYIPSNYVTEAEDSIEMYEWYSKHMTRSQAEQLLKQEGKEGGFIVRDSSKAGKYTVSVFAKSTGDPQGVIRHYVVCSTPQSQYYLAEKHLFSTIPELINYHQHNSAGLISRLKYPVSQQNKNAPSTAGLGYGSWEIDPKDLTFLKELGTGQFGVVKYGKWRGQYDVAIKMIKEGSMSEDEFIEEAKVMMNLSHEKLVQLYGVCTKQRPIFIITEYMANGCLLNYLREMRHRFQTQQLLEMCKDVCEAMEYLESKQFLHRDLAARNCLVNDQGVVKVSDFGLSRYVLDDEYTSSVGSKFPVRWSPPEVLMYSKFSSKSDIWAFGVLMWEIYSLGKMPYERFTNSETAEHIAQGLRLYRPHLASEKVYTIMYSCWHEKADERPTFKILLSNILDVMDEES
Just the number please, in nM, no unit attached.

Recorded results for 5 compounds are shown here.
COMPOUND: CC(C)C1(C(=O)O)CCC(C)(c2nc(-c3ccc(C(=O)Nc4cc(C(F)(F)F)ccn4)cc3)c3c(N)nccn23)C1 (stereo not drawn) [Example 143]
TESTED_TARGET: BTK enzyme (recombinant full-length BTK, hBTK) (Homo sapiens (Human))
UNITS: nM
RECORDED_NUMBER: 0.72
--
COMPOUND: CCOc1cc(C(=O)Nc2cc(C(F)(F)F)ccn2)ccc1-c1nc(C23CCC(C(=O)O)(CC2(F)F)C(F)(F)C3)n2ccnc(N)c12 (stereo not drawn)
TESTED_TARGET: BTK enzyme (recombinant full-length BTK, hBTK) (Homo sapiens (Human))
UNITS: nM
RECORDED_NUMBER: 0.47
--
COMPOUND: COc1cc(C(=O)Nc2cc(C(F)(F)F)ccn2)ccc1-c1nc(C23CCC(C(=O)O)(CC2)CC3)n2ccnc(N)c12
TESTED_TARGET: BTK enzyme (recombinant full-length BTK, hBTK) (Homo sapiens (Human))
UNITS: nM
RECORDED_NUMBER: 0.29
--
COMPOUND: CCOc1cc(C(=O)Nc2cc(C(F)(F)F)ccn2)ccc1-c1nc([C@H]2CC[C@@](C(=O)O)(C(C)C)C2)n2ccnc(N)c12
TESTED_TARGET: BTK enzyme (recombinant full-length BTK, hBTK) (Homo sapiens (Human))
UNITS: nM
RECORDED_NUMBER: 0.58
--
COMPOUND: CCOc1cc(C(=O)Nc2cc(C(F)(F)F)ccn2)ccc1-c1nc(C23CCC(C(=O)O)(CC2O)C(O)C3)n2ccnc(N)c12 (stereo not drawn)
TESTED_TARGET: BTK enzyme (recombinant full-length BTK, hBTK) (Homo sapiens (Human))
UNITS: nM
RECORDED_NUMBER: 3.9

Next, consider the following compound.
stdin: What value of measured IC50 is listed for Nc1nccn2c(N3CC[C@H](C(=O)O)C3)nc(-c3ccc(C(=O)Nc4cc(C(F)(F)F)ccn4)cc3)c12 ?
stdout: 0.91
